This collection of values is drawn from patent US7612087B2.

biological target: β-lactamase P99 (Enterobacter cloacae); construct: The β-lactamases are isolated from bacterial strains which are resistant to penicillins and cephalosporins; endogenous in cells; host or cells: Enterobacter cloacae 293HT6 (natural producer; French-press lysate, 100,000 g supernatant); test: biochemical; settings: 100 μM Nitrocefin, 50 mM sodium phosphate buffer pH7.0, 37° C.; read-out: IC50 nM/P99
Sequence (P05364 21-381): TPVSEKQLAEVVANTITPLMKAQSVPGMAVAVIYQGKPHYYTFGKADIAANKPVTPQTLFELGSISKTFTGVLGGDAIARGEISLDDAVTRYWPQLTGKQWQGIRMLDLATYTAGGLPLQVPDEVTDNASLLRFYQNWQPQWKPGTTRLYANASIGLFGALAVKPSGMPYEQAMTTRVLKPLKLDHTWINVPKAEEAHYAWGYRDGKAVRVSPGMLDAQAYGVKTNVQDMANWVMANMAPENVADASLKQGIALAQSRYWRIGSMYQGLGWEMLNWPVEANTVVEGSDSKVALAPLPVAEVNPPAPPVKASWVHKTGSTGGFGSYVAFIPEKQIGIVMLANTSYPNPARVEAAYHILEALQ
Labelling field: enter Met if recorded IC50 is less than 100 nM. Enter Not met if it equals or exceeds that cut-off.

compound	assigned-label
O=C(NCCc1cccnc1)[C@H]1CC[C@@H]2CN1C(=O)N2OS(=O)(=O)[O-].[Na+] (relative stereo)	Not met

## Task IC50 under 100 nM? Item: O=C(O)CC[C@@H]1CCN2C[C@H]1OC2=O (relative stereo)
## Result Not met
